Property: switch fluorescence ratio; scope: individual sequences
Tested on: ATP;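 also: ATP exposure 15 min at 22 °C before imaging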
method-description: switch fluorescence ratio, 500 uM ATP over buffer (Cy3 cluster intensity, sum of 5 cycles each) (fold (ratio)); higher = stronger signal-on switching upon ATP binding; sequences stand for … in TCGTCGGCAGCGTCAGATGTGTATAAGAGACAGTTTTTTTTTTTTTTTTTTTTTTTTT…TC
condition-label: aptamer strand: ATP DNA aptamer (quencher-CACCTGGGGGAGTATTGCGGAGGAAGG + anchor), 100 nM annealed; ATP concentration: 500 uM
Lab note: jot down the number only; don't add units.

>  <residue-codes>
GTTTATGGGT

>  <switch fluorescence ratio>
1.02

$$$$
>  <residue-codes>
CAATTGCCCA

>  <switch fluorescence ratio>
1.01

$$$$

Next item in the queue.
Entry `TCGGTTAGTA` , switch fluorescence ratio reported as 0.988

###

Tested on: ATP;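 also: ATP exposure 15 min at 22 °C before imaging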
method-description: switch fluorescence ratio, 500 uM ATP over buffer (Cy3 cluster intensity, sum of 5 cycles each) (fold (ratio)); higher = stronger signal-on switching upon ATP binding; sequences stand for … in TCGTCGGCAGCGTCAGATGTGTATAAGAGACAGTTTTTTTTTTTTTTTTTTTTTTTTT…TC
condition-label: aptamer strand: ATP DNA aptamer (quencher-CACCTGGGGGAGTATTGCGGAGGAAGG + anchor), 100 nM annealed; ATP concentration: 500 uM
measurement-label: switch fluorescence ratio
# output: bare number, no unit

Short answer for `CGGGAGGGGC` : switch fluorescence ratio was 1.02

switch fluorescence ratio in this record for `TATAACGCTT` : 1.01

Looking up `ATGTGTTCGG` , I see its switch fluorescence ratio listed as 0.98

# switch fluorescence ratio of `GGGAACCGGA` = 1.03

Given item `TACCCATTAC` , the value recorded as its switch fluorescence ratio is 1.72

So for `GGCCTGGGAC` , the logged switch fluorescence ratio turned out to be 1.01

Short answer for `CGGTGGCGGG` : switch fluorescence ratio was 1

Field switch fluorescence ratio (entry `TAAGGGCGGC` ) reads 0.995

GET /value?item= `TTTTAATCCC` &field=switch fluorescence ratio returns 1.07

###

Tested on: ATP;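 also: ATP exposure 15 min at 22 °C before imaging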
method-description: switch fluorescence ratio, 500 uM ATP over buffer (Cy3 cluster intensity, sum of 5 cycles each) (fold (ratio)); higher = stronger signal-on switching upon ATP binding; sequences stand for … in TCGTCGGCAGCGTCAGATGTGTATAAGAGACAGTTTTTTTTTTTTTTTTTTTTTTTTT…TC
condition-label: aptamer strand: ATP DNA aptamer (quencher-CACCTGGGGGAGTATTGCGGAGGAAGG + anchor), 100 nM annealed; ATP concentration: 500 uM
measurement-label: switch fluorescence ratio
Answer using only a numeral; do not append any unit.

Illustrative cases are given below, each with its answer.
>  <residue-codes>
TTTTTTCAAT

>  <quantitative-result>
1.03

$$$$
>  <residue-codes>
TTTTACGCTT

>  <quantitative-result>
1.04

$$$$
>  <residue-codes>
GATTGAGTAG

>  <quantitative-result>
0.986

$$$$
>  <residue-codes>
AAGGGTTCAT

>  <quantitative-result>
1.03

$$$$
>  <residue-codes>
CTTAGATAGT

>  <quantitative-result>
1.01

$$$$

switch fluorescence ratio reported for this sequence `TGTTGGGGGG` : 1.01

// recorded switch fluorescence ratio for `CAAGGAGATG` : 1.01

# switch fluorescence ratio of `GGGGCTGGTA` = 1

Given item `GCTGGGAGGA` , the value recorded as its switch fluorescence ratio is 1.02

Recorded switch fluorescence ratio (sequence `ACGGGTTCGT` ): 1.01

The value of switch fluorescence ratio measured for the sequence `AAGAACTTGC` turned out to be 0.982

Entry `ATTATTTGAC` , switch fluorescence ratio reported as 1.08

Notebook: `GTGCTCAGGG` , switch fluorescence ratio read as 1.02

Briefly, switch fluorescence ratio measured for `GTTTTTATAG` : 0.992

// `TACTATGTGG` : switch fluorescence ratio value = 1.01

# sequence `TGCACTGGGA` ; its switch fluorescence ratio = 1.04

Per the records, this sequence ( `CAGGATGCGA` ) has switch fluorescence ratio equal to 1.05

Note to self: switch fluorescence ratio recorded for `ATATTGGGTT` was 0.971

So, `ACAGTTCCCC` ? Its switch fluorescence ratio was 1.13

For this sequence ( `CAATTCGTCT` ), measured switch fluorescence ratio is 0.994

Lab note: `GGGGATGTGA` gave switch fluorescence ratio of 0.967

Given item `ACGTCTGAGG` , the value recorded as its switch fluorescence ratio is 1.02

In plain terms, `AGGCGGGCGA` has a documented switch fluorescence ratio of 1.02

Item: `TAACTGCAGA` | switch fluorescence ratio: 1.01

Lab note: measured switch fluorescence ratio of `AGAAATTTGG` was 1.01

`ACAGCGTGGG` has a reported switch fluorescence ratio of 1.04

Each recorded value in this set is attributed to the supplement of paper PMC10126150.
